Tested on: CCRF-CEM leukemia
Method summary: NCI-60 one-dose screen, 48 h
Condition parameters: 10 µM unless noted
The panel holds about 83,000 compounds, 20% with a hit somewhere; the sample as a whole holds those more often. Active and inactive are the calls of the source. How the source made its calls: active means growth percent below 10; inactive means the rest.
Your reply should match one of these outcome classes. active, inactive

I would be grateful if you could indicate the recorded call for Cc1cc2c(cc1C)N(C(=O)CCl)CCN2C(=O)CCl .
active

Would you mind telling me which call this test gave O=C1OC(c2ccc(-c3ccccc3)cc2)=C/C1=C/C=C/c1ccccc1 ?
inactive

I would be grateful if you could indicate the recorded call for C=C1C(=O)O[C@H]2[C@H]1CC/C(C(=O)Nc1ccc(OC)c(C(N)=O)c1O)=C\CC[C@@]1(C)O[C@@H]21 .
active

For the next question, use this molecule.
Outcome? CCCCCC/C=N/Nc1ccc([N+](=O)[O-])cn1
inactive

====

Test system: IGROV1 ovarian
Method summary: NCI-60 one-dose screen, 48 h (100 = growth as untreated, 0 = no growth, -100 = all killed)
Condition parameters: 10 µM unless noted
Compounds without any hit were thinned out: in the full panel of roughly 83,000, 20% have a hit.
Answer Not fulfilled if growth is under 60%, and Fulfilled if it is 60% or more.

Examples from the recorded data:
Could you verify whether the entry CC(C)CNCC(O)COc1ccc(C(C)(C)c2ccc(OCC(O)CNCC(C)C)cc2)cc1 (configuration not stated) shows growth of no less than 60%?
Not fulfilled

Is it the case that COc1ccc(/C=C/C(=O)c2ccc(-n3cc(CN4CCN(c5cc6c(cc5F)c(=O)c(C(=O)O)cn6C5CC5)CC4)nn3)cc2)cc1OC has growth reaching or exceeding 60%?
Not fulfilled

Decide: is the reported value of growth for COc1cc(CN(c2ccc(Cl)cc2)C2OC(=O)c3ccccc32)cc(OC)c1OC (configuration not stated) equal to or greater than 60%?
Fulfilled

New cases:
Check if growth >= 60% (inclusive). Item: N#Cc1c2c(c(N)[nH]c1=O)C(=O)NC2(O)c1ccccc1 (configuration not stated)
Fulfilled

Does growth meet or surpass 60% for COc1cc(NC(=O)C#Cc2ccccc2)c(OC)cc1Cl ?
Not fulfilled

State whether the measured growth reaches 60%, counting equality as reaching it, for CN(C)c1ccc(/C=c2\s/c(=C\C(=O)C(C)(C)C)[nH]c2=O)cc1
Fulfilled

Given Nc1ncnc2c1ncn2C1OC(COC(c2ccccc2)(c2ccccc2)c2ccccc2)C(O)C1O (configuration not stated) , state whether its growth is at least 60%.
Fulfilled

Test whether the compound Nn1c(CN2CCN(c3cc4c(cc3F)c(=O)c(C(=O)O)cn4C3CC3)CC2)n[nH]c1=S records growth of 60% or higher.
Fulfilled

====

System: HOP-92 NSCLC
Method summary: NCI-60 one-dose screen, 48 h
Condition parameters: 10 µM unless noted
This is part of a sample that, as a whole, favours compounds with a hit. Of some 83,000 tested, about 20% had one in any assay. The source made the active and inactive calls. How the source made its calls: active means growth percent below 10; inactive means the rest.
Tick one outcome: active, inactive

Take a look at these entries with their results.
What call does the record list for CC(C)(C)OC(=O)NCc1cccc(N=C=S)c1 ?
active

How did this test come out for O=C1CCC(=O)N1C1CCCCC1 ?
inactive

What did the test return for CC(=O)N[C@@H](CNC(=O)c1cc(NC(=O)c2cc(NC(=O)c3cc(NC(=O)c4nccn4C)cn3C)cn2C)cn1C)CC(=O)Nc1cn(C)c(C(=O)Nc2cc(C(=O)Nc3cc(C(=O)Nc4cc(C(=O)NCCCN(C)CCCNC(=O)c5cccc(C(=O)O)c5)n(C)c4)n(C)c3)n(C)c2)n1 ?
inactive

---
Give the logged outcome of this assay for the following compound: CCC(CC(C)C)Nc1ccc(NC(CC)CC(C)C)cc1 (configuration not stated)
active

Outcome logged for CN1CCN(C(=O)/C=C/c2ccc([N+](=O)[O-])o2)CC1 in this assay:
inactive

Given NC(CCCC(N)C(=O)c1ccccc1)C(=O)O (configuration not stated) , state the outcome it received in this test.
inactive

Dear colleague, could you share the recorded outcome for COc1ccc(/C=C2/C(=O)Nc3cc(Cl)c(-c4csc(N)n4)cc32)cc1 when you have a moment?
inactive
